Tested on: LOC_OS01G51400-cb002;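 further: purified Escherichia coli-expressed rice kinase domain construct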
Test: thermal shift delta Tm vs DMSO control; higher = stronger stabilization (binding)
Details: 12.5 µM; protein concentration 2 µM
Structures can show the parent of a compound that is named as a salt.
Value Type: thermal shift delta Tm (°C)
Use °C as the unit, but write only the number.

Some solved cases for reference:
{"Molecule": "N#CC1(c2ccc(NC(=O)c3cccnc3NCc3ccncc3)cc2)CCCC1", "Unit String": "°C", "thermal shift delta Tm": 0.33}
{"Molecule": "COc1cc(C(=O)N2CCC(N3CCN(C)CC3)CC2)ccc1Nc1ncc2c(n1)N(C)c1ccccc1C(=O)N2C", "Unit String": "°C", "thermal shift delta Tm": -0.06}
{"Molecule": "O=C(Nc1ccc(OC(F)(F)F)cc1)c1sccc1NCc1ccnc2ccccc12", "Unit String": "°C", "thermal shift delta Tm": 0.94}
{"Molecule": "Nc1ncccc1-c1nc2ccc(-c3ccccc3)nc2n1-c1ccc(C2(N)CCC2)cc1 [Miransertib (ARQ 092) HCl]", "Unit String": "°C", "thermal shift delta Tm": 0.08}

Pending molecule:
Exercise: For the molecule C=CC(=O)N1CCC[C@@H](n2nc(-c3ccc(Oc4ccccc4)cc3)c3c(N)ncnc32)C1 , give its measured thermal shift delta Tm value.
Key: 0.21
